measurementTarget: Melanin-concentrating hormone receptor 1 (Homo sapiens)
Sequence (Q99705 whole entry): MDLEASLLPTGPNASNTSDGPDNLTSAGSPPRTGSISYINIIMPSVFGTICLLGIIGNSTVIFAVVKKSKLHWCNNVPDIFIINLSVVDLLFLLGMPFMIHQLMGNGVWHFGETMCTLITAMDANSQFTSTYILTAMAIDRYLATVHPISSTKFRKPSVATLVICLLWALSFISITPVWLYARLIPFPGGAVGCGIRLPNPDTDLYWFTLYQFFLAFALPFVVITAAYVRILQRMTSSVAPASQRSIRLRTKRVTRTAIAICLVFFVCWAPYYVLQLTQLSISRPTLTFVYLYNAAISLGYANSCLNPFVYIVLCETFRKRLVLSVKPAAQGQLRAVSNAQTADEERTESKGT
methodDescription: Stimulation of IP3-coupled mobilization of calcium in HEK293 cells expressing MCH-R1
endpointLabel: EC50

CCCc1cc(NC2CCC2)c2cc(NC(=O)/C=C/c3ccc(C(F)(F)F)cc3)ccc2n1	0.27 µM
Cc1cc(N)c2cc(NC(=O)/C=C/c3ccc(C(F)(F)F)cc3)ccc2n1	0.14 µM
CCCc1cc(NC)c2cc(NC(=O)/C=C/c3ccc(C(F)(F)F)cc3)ccc2n1	0.15 µM
CCCc1cc(N)c2cc(NC(=O)/C=C/c3ccc(Cl)cc3)ccc2n1	0.096 µM
CCCc1cc(NCC)c2cc(NC(=O)/C=C/c3ccc(C(F)(F)F)cc3)ccc2n1	0.34 µM
CCCc1cc(N)c2cc(NC(=O)/C=C/c3ccccc3Cl)ccc2n1	0.5 µM

Taken from ChEMBL document CHEMBL1137266.
